System: SK-MEL-2 melanoma
Experiment: NCI tumour cell line growth inhibition, 48 h
measure: GI50

Check out these entries, answers already filled in.
Cn1cc(-c2cc(-c3cn(C)c4ccccc34)[nH]n2)c2ccccc21    57500 nM
O=C(Nc1cccc(-n2ccc3c(NC(=O)c4ccccc4)ncnc32)c1)Nc1ccc(Cl)c(C(F)(F)F)c1    1180 nM

For the next question, use this molecule.
What value of measured GI50 is listed for `COc1cc(N=Nc2cc(Cc3ccc(N(C)C)cc3)c(N)cc2N(C)C)c2ncccc2c1` ?
562 nM

* * *

Tested on: SF-268 CNS
Test: NCI tumour cell line growth inhibition, 48 h; in the data active = GI50 below about 0.43 µM; inactive = the rest
Form entry, call: pick from active, inactive

Solved entries:
CC[C@H](C)[C@H](NC(=O)C12C3C4C1C1C2C3C41NC)C(=O)N(C)[C@H](C[C@@H](OC(C)=O)c1nc(C(=O)N[C@@H](Cc2ccccc2)C[C@H](C)C(=O)OC)cs1)C(C)C (stereo partly specified)    inactive
COc1cccc(C2CC(=O)Nc3c2c(C)nn3-c2nc3ccccc3[nH]2)c1OC (stereo unspecified)    inactive
CCn1cc(C(=O)O)c(=O)c2cc(F)c(N3CCN(S(=O)(=O)c4ccc(Cl)cc4Cl)CC3)cc21    inactive

Per the assay record, what outcome was assigned to `Cn1cc(-c2cc(-c3cn(C)c4ccccc34)[nH]n2)c2ccccc21` ?
inactive

Lab log entry: `Cc1cc(N2CCC(N3CCCC3)CC2)nc(/N=C(\N)Nc2ccc(Cl)c(Cl)c2)n1` — outcome as called in the assay?
inactive

Dear all, I need the recorded test outcome for `Nc1ccc(CC[C@H]2CCC/C=C/[C@@H]3C[C@H](O)C[C@H]3[C@H](O)/C=C/C(=O)O2)cc1` , thank you.
active

Source: PubChem BioAssay (NCI)
